src = paper PMC10266688

experimental-details: Single dose pharmacokinetics in CD1 mice (IV, IP, PO), plasma LC-MS/MS; as to Plasma concentration: key: BQL: Below the lower limit of quantitation (LLOQ)
Type: in vivo, mouse
measurement-context: male, mouse, in vivo; CD-1 mice, PO 50 mg/kg, 480 min, individual (Groups A-D); read-out: Plasma concentration
recorded-metric: concentration at 480 min (ng/mL)

• N#Cc1ccc(/C=C2/C(=O)/C(=C/c3ccc(C#N)cc3)C23CCNCC3)cc1 [Up284] = 376

---

experimental-details: Single dose pharmacokinetics in CD1 mice (IV, IP, PO), plasma LC-MS/MS; as to Plasma concentration: key: BQL: Below the lower limit of quantitation (LLOQ)
Assay type: in vivo, mouse
measurement-context: male, CD1, mouse, in vivo, iv, 5 mg/kg, Plasma concentration, Mean
Protocol: For single dose pharmacokinetic studies, plasma samples (40 μL) were mixed with 200 μL of a water-methanol mixture 1:9, v/v containing the internal standard elacridar at 400 ng/mL. […] The lower limit of quantitation (LLOQ) in plasma was 50 ng/mL. Pharmacokinetic parameters were calculated from mean concentration-time data using non-compartmental methods in Phoenix WinNonlin version 8.3 (Certara, Princeton, NJ). […] The AUClast was calculated using the log-linear trapezoidal method. […]
recorded-metric: concentration at 240 min (ng/mL)

• N#Cc1ccc(/C=C2/C(=O)/C(=C/c3ccc(C#N)cc3)C23CCNCC3)cc1 = 421

---

experimental-details: Single dose pharmacokinetics in CD1 mice (IV, IP, PO), plasma LC-MS/MS; as to Plasma concentration: key: BQL: Below the lower limit of quantitation (LLOQ)
Type: in vivo, mouse
measurement-context: CD-1, mouse, in vivo, ip, 20 mg/kg, Plasma concentration
Description: For single dose pharmacokinetic studies, plasma samples (40 μL) were mixed with 200 μL of a water-methanol mixture 1:9, v/v containing the internal standard elacridar at 400 ng/mL. […] The lower limit of quantitation (LLOQ) in plasma was 50 ng/mL. Pharmacokinetic parameters were calculated from mean concentration-time data using non-compartmental methods in Phoenix WinNonlin version 8.3 (Certara, Princeton, NJ). […] The AUClast was calculated using the log-linear trapezoidal method. […]
recorded-metric: concentration at 60 min (ng/mL)

- N#Cc1ccc(/C=C2/C(=O)/C(=C/c3ccc(C#N)cc3)C23CCNCC3)cc1 [Up284]: 2400

---

study-system: 42kDa cellular protein (RPN13) (Homo sapiens)
Construct: endogenous in cells; host or cells: HeLa cell lysate
Sequence (Q16186 2-407): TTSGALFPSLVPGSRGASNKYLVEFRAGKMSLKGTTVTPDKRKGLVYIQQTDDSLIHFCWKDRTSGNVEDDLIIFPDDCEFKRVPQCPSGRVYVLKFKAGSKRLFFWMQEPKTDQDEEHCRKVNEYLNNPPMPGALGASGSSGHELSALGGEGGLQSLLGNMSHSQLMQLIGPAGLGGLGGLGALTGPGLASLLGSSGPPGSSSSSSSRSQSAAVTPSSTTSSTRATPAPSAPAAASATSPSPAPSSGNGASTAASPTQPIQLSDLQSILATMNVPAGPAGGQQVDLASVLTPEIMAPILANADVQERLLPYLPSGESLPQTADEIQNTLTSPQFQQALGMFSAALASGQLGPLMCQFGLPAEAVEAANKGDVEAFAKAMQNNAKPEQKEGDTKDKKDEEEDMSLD
experimental-details: Competition for RA190B binding in HeLa cell lysate
measurement-context: HeLa lysate pre-treated with compound (5 μM) 45 min 4°C, then RA190B (20 μM)
Procedure: NEM (1 mM) used as positive control.
recorded-metric: competition for RA190B binding to the 42KDa cellular protein

- N#Cc1ccc(/C=C2/C(=O)/C(=C/c3ccc(C#N)cc3)C23CCNCC3)cc1 [Up284]: competed
- Cl.N[C@@H](Cc1ccccc1)C(=O)N1C/C(=C/c2ccc(Cl)c(Cl)c2)C(=O)/C(=C\c2ccc(Cl)c(Cl)c2)C1 [RA190, reference compound]: competed
- C=CC(=O)N1CCC2(CC1)/C(=C\c1ccc(C#N)cc1)C(=O)/C2=C/c1ccc(C#N)cc1 [Up285]: competed

---

experimental-details: Single dose pharmacokinetics in CD1 mice (IV, IP, PO), plasma LC-MS/MS; as to Plasma concentration: key: BQL: Below the lower limit of quantitation (LLOQ)
Assay type: in vivo, mouse
measurement-context: male, mouse, in vivo; CD-1 mice, PO 50 mg/kg, 240 min, individual (Groups A-D); read-out: Plasma concentration
recorded-metric: concentration at 240 min (ng/mL)

• N#Cc1ccc(/C=C2/C(=O)/C(=C/c3ccc(C#N)cc3)C23CCNCC3)cc1 [Up284] = 366
